- Test system: Trypanosoma brucei
- assayProcedure: Trypanosoma brucei 72 hour study
- Assay type: functional, organism-based
- Design: scale not given: in the data most compounds retested in dose-response had high values
- runConditions: 30.3 µM; […]
Screen size: about 66,000 compounds; about 960 (1.5%) showed an effect of 50% or more. Only a selection was taken, and strong results are over-represented in it overall.
Would you kindly list Percent Effect for each of these compounds?
Don't forget the unit after the number, please.

// Percent Effect lookup, key: Cc1noc([C@]23COC[C@H]2CN(C(=O)CN(C)C)C3)n1.O=C(O)C(F)(F)F
106.1%

Can you look up the measured Percent Effect of O=C(Nc1cnccn1)[C@H]1CC[C@@H]2[C@@H](CCN2Cc2ccoc2)O1.O=C(O)C(F)(F)F for me?
-117.8%

Please report the recorded Percent Effect for CS(=O)(=O)N1CCC2(CC1)CC(NCC1CC1)c1ccccc12.O=C(O)C(F)(F)F (stereo not drawn) .
3.499%

Given the compound CC(C)CC(=O)N1CC(=O)c2sc(Nc3ccc(C#N)cc3)nc2C1 , what is its reported Percent Effect?
-13.31%

What value of Percent Effect has been reported for the following compound? Nc1ncc(-c2ccc(F)cc2)c(C2CCCNC2)n1 (stereo not drawn)
1.475%

Which Percent Effect value is on record for CC(C)(C)Nc1nc(-c2cccnc2)c(-c2ccnc(NCCO)n2)s1 ?
94.16%

What value of Percent Effect has been reported for the following compound? CC(Nc1ncnc2c1CCNC2)c1ccc2c(c1)CCCC2 (stereo not drawn)
100.2%

Item under review: CN1CCN(c2ccccc2NC(=O)NCCc2ccc(O)cc2)CC1 . Reported Percent Effect?
8.397%

Return reported Percent Effect; argument: COCCNC(=O)c1nnn(Cc2ccccc2)c1OC
3.67%

Quick one: Percent Effect for Nc1ncc(-c2ccc(Cl)cc2)c(C2CCCNC2)n1 (stereo not drawn) ?
28.09%

Please give the measured Percent Effect for this compound: Cl.Fc1cccc(F)c1Cn1c(C2CCCNC2)cc2cccnc21 (stereo not drawn)
11.23%

Reported Percent Effect, compound CC(C)N(C)Cc1cnc2n1CCN(Cc1ccc(F)cc1)C2.O=C(O)C(F)(F)F.O=C(O)C(F)(F)F : ____
5.253%

Fill blank: measured Percent Effect of the compound CN1CCCCC1c1ncc2c(n1)CCN(CCCc1ccccc1)C2 (stereo not drawn) is ____.
98.5%

Give its Percent Effect value. Item: Cc1noc([C@]23COC[C@H]2CN(C(=O)COC2CCCC2)C3)n1
-59.73%

# get_value(readout='Percent Effect', item= CC[C@H](C)Nc1ncc(-c2ccn(C3CCN(C(C)=O)CC3)n2)cn1 )
-5.339%

Returns the measured Percent Effect for the input compound. Input: COc1cccc(-c2ccnc(C3CCNCC3)c2)c1
-11.36%

Percent Effect lookup needed for O=C(O)C(F)(F)F.O=C(c1cnccn1)N1CCOC2(CCCN(c3ncccc3F)C2)C1 (stereo not drawn) , thanks.
-33.25%

Which value of Percent Effect has been reported for CCOCC(=O)N1C[C@@H]2COC[C@]2(c2nc(C)no2)C1 in the records?
-76.29%

Percent Effect for CC(=O)N1CCC(n2ccc(-c3cnc(N4CCOCC4)nc3)n2)CC1 ?
26%

Entry CN(C)C(=O)CN1CCC(c2c(C(N)=O)sc3ncccc23)C1 (stereo not drawn) : reported Percent Effect = ?
-20.96%

Recorded Percent Effect of Cl.Fc1ccccc1Cn1c(C2CCNCC2)cc2cccnc21 , please.
37.09%

// lookup Percent Effect for O=C(O)C(F)(F)F.O=C(c1ccncc1)N1CCOC2(CCCN(c3nncs3)C2)C1 (stereo not drawn)
-64.64%

So what's the measured Percent Effect for this one? CO[C@H]1CC[C@H]2[C@H]1OCCN2Cc1ccc(F)c(F)c1.O=C(O)C(F)(F)F
-36.53%

Which Percent Effect is reported for this compound? COc1cc2nc(NCc3cc(C)on3)nc(N)c2cc1OC
-6.228%

Look up Percent Effect: CCn1nnc2c1C(COCC(=O)N(C)C)CN(Cc1ccco1)C2.O=C(O)C(F)(F)F (stereo not drawn)
-38.68%

What value of Percent Effect has been reported for the following compound? COc1cccc(CN2CCCC3(CCN(C(=O)N4CCCC4)C3)C2)c1.O=C(O)C(F)(F)F (stereo not drawn)
-29.29%

What Percent Effect value was documented for this compound, CN1CCN(c2ccccc2NC(=O)NCCc2ccccc2)CC1 ?
100.1%

Would you kindly share the measured Percent Effect for Cn1ccnc1C(=O)NCc1cnc2n1CCN(CC1CC1)CC2.O=C(O)C(F)(F)F.O=C(O)C(F)(F)F ?
-46.77%

Which Percent Effect is reported for this compound? CCS(=O)(=O)NCCNc1cc(-n2cccc2)ncn1
14.19%

Request the reported Percent Effect associated with O=C(O)C(F)(F)F.O=C1C[C@H]2[C@@H](CCN2C(=O)Cc2ccccc2)N1Cc1cccnc1
-5.465%

Using the record for COc1cccc(CN2C[C@H]3CCNCC[C@H]3S2(=O)=O)c1 , report its Percent Effect.
-73.82%

Fill blank: measured Percent Effect of the compound CN(CCC(O)c1ccccc1)Cc1nc(-c2ccccc2)no1 (stereo not drawn) is ____.
-13.82%

So what does the record say about Percent Effect for CCCn1c(N2CCCC(C)C2)nc2c(C)nn(C)c2c1=O (stereo not drawn) ?
99.54%

# get_value(readout='Percent Effect', item= COC(=O)C(CCSC)NC(=O)Cc1c(C)nn(-c2ccccc2)c1C (stereo not drawn) )
100.4%

Percent Effect lookup needed for CS(=O)(=O)N1CC2(CCN(C(=O)c3ccncc3)CC2)c2ccccc21.O=C(O)C(F)(F)F , thanks.
-14.55%

Which Percent Effect is reported for this compound? CC(C)C(CCO)NC(=O)Nc1cc(F)ccc1-n1cccn1 (stereo not drawn)
-14.63%

Consider the compound shown here: CN(C)C(=O)CN1CCCC(c2nccnc2-c2cccc(Cl)c2)C1 (stereo not drawn) What is its recorded Percent Effect?
-2.355%

I would be grateful if you could share the reported Percent Effect for CCOc1ccc(C(C)Nc2ncnc3c2CCNC3)cc1OCC (stereo not drawn) .
2.402%

Which Percent Effect is reported for this compound? Cc1nnc([C@@]23CCO[C@@H]2CCN(S(=O)(=O)c2ccccc2)C3)o1
-46.55%

Any idea what its Percent Effect is? The compound is COc1ccc(Cn2c(C3CCNCC3)cc3cccnc32)cc1.Cl
99.58%

Which Percent Effect reading was recorded for the compound CCCc1ccc(C(C)Nc2ncnc3c2CCNC3)cc1 (stereo not drawn) ?
56.69%

Given the compound COc1cc(C(=O)NCCc2ccccc2OC)on1 , what is its reported Percent Effect?
101.4%

GET /values?readout=Percent Effect&item= CNc1ncc2c(n1)CN(C1CC(C)(C)NC(C)(C)C1)C2=O
8.017%
